B1: FCHSD1 (parent)
chain: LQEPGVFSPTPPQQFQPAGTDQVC

# Variants of: B1
# test.summary: protein stability index of a GFP-peptide fusion (GPS, HEK-293T) (PSI 1-6); higher = more stable;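 further: lentivirally expressed fusions sorted by FACS into six bins by GFP to DsRed ratio, PSI derived from sequencing read proportions per bin multiplied by bin number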
# condition.context: c terminus: a fixed tail appended
reported.metric: protein stability index
Just the number, please, no unit after it.

• Q16L = 3.93

Memo: P11R , reported protein stability index: 3.9

Memo: P11L , reported protein stability index: 3.89
